Here the recorded EC50 (read off the curve) is given for each entry.
- study_system: T1, human SIRPA_V2 protein (human, UniProt P78324 31-504)
- T1 construct: Expressed on 293α cells from pcDNA3.2 V5-DEST or pFLAG V5-DEST (FLAG-tagged) vectors; also called human SIRPA Variant 2; ECD variant (full-length, amino acids 1 to 504)
- T1 sequence (P78324 other isoform, or with tags, fused parts or gaps limits assumed): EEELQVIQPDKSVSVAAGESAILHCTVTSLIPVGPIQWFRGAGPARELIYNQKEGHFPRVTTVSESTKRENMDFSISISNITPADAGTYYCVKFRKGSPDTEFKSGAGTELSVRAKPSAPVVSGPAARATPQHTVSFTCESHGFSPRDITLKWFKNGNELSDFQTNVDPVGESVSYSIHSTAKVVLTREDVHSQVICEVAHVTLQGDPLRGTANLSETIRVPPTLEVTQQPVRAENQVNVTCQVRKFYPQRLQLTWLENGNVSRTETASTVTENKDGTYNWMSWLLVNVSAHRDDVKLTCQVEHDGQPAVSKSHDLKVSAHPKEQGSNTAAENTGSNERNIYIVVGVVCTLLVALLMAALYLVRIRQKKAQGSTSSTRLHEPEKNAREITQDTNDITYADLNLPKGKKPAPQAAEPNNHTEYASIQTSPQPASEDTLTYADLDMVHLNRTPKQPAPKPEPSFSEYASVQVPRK
- experimental_protocol: cell-based ELISA on 293α cells expressing FLAG-tagged SIRPA_V2; Abs 490 normalized to FLAG tag
property_name: EC50 (read off the curve)

{"binder": "cF44 (IgG2) (antibody, V domains shown, Human IgG2 constant region; also called cF44 IgG2 type) VH: EVQLVESGGGLVQPGRSLKLSCAASGFTFSNYYMAWVRQAPTKGLEWVTYITTGGGSTYFRDSVKGRFTISRDNAESTLYLQMDSLRSEDTATYYCTAANYGGSYFDYWGQGVMVTVSS VL: DVQMTQSPSNLAASPGESVSINCKASKSISKYLAWYQQKPGKANKLLIYSGSTLQSGTPSRFSGSGSGTDFTLTIRNLEPEDFGLYYCQQHNEYPPTFGAGTKLELK", "measured_result": "~40 ng/mL"}
{"binder": "cF44 (IgG4p) (antibody, V domains shown, Human IgG4p (PRO mutation) constant region; also called cF44 IgG4p type) VH: EVQLVESGGGLVQPGRSLKLSCAASGFTFSNYYMAWVRQAPTKGLEWVTYITTGGGSTYFRDSVKGRFTISRDNAESTLYLQMDSLRSEDTATYYCTAANYGGSYFDYWGQGVMVTVSS VL: DVQMTQSPSNLAASPGESVSINCKASKSISKYLAWYQQKPGKANKLLIYSGSTLQSGTPSRFSGSGSGTDFTLTIRNLEPEDFGLYYCQQHNEYPPTFGAGTKLELK", "measured_result": "~50 ng/mL"}
{"binder": "human chimeric anti-SIRPA antibody cD13 (antibody, human IgG4 S228P, kappa, F234A L235A, V domains shown, Human IgG4proFALA heavy chain, human kappa light chain; also called cD13 (IgG4pf); human chimeric antibody D13) VH: EVQLVESGGGLVQPGRSLKLSCLASGFTFSDYGMIWVRQAPGKGLEWVASISSSSSYIYYADTVKGRFTISRENAKNTLFLHMTSLRSEDTALYYCARRYYGFNYPFDYWGQGVMVTVSS VL: DTVLTQSPALAVSLGQRVTISCGASKSVRTYMHWYQQKSGQQPKLLIYSASNLEAGVPSRFSGSGSGTDFTLTIDPVEADDIANYYCQQSNEPPYTFGAGTKLELKR", "measured_result": "~50 ng/mL"}
